Parameter: protein stability index. Scope: all listed entries.
assay: protein stability index of a GFP-peptide fusion (yeast GPS) (PSI 1-4); higher = more stable; sorted into four equal gates, so the index is relative within each strain; conditions: san1∆

Some solved cases for reference:
{"columns": ["sequence-entry", "protein stability index"],
 "data": [
  ["FYAAVQKNYADPEKDSI [SIN4]", 2.01],
  ["INCNKETIENVKLQMIK [ECM29]", 2.93],
  ["IVNNDLPTTVVSNPGDN [MED2]", 2.82],
  ["DYNKKQDRIQDVKLVLA [MED1]", 2.28],
  ["KDGGDKPPSSAFNFSFN [YAR002W/NUP60]", 3.17]
]}

Exercise: Return the recorded protein stability index value; entry: KDLVKNNVSFNAKDIQI [FAS1]
Key: 2.69

Exercise: Give the value of protein stability index reported for the following: RHMVDDKIHARARGPMQ [RPB2]
Key: 3.27
